The reported measurements were obtained from patent US20140179664A1.

Target: JAK2 (Homo sapiens)
Construct: endogenous in cells
Assay: Kinobeads assay, JAK2
Settings: mixed Molt4/Ramos lysate, read-out: Inhibition values (IC50) JAK2
pIC50: −log10 of the molar value.
Measured Endpoint: pIC50

| Molecule | pIC50 |
| --- | --- |
| OCCn1cc(Nc2ncc(F)c(N[C@H](CO)c3ccccc3)n2)cn1 | ≤ 5.00 |

Endpoint output: pIC50 of `O=C(NCCO)[C@@H](Nc1nc(Nc2cnn(CCO)c2)ncc1Cl)c1ccccc1` . Value? 5.00 to 6.00

Which pIC50 value is on record for Cn1cc(Nc2ncc(Cl)c(NC(CO)c3cccc(Br)c3)n2)cn1 (centres unmarked) ? ≤ 5.00

pIC50 lookup needed for `CN(C)C(=O)Cn1cc(Nc2ncc(Cl)c(N[C@H](CO)c3ccccc3)n2)cn1` , thanks. 5.00 to 6.00

----------
Molecular target: JAK1 (Homo sapiens, UniProt P23458)
Construct: endogenous in cells
Sequence (P23458 whole entry): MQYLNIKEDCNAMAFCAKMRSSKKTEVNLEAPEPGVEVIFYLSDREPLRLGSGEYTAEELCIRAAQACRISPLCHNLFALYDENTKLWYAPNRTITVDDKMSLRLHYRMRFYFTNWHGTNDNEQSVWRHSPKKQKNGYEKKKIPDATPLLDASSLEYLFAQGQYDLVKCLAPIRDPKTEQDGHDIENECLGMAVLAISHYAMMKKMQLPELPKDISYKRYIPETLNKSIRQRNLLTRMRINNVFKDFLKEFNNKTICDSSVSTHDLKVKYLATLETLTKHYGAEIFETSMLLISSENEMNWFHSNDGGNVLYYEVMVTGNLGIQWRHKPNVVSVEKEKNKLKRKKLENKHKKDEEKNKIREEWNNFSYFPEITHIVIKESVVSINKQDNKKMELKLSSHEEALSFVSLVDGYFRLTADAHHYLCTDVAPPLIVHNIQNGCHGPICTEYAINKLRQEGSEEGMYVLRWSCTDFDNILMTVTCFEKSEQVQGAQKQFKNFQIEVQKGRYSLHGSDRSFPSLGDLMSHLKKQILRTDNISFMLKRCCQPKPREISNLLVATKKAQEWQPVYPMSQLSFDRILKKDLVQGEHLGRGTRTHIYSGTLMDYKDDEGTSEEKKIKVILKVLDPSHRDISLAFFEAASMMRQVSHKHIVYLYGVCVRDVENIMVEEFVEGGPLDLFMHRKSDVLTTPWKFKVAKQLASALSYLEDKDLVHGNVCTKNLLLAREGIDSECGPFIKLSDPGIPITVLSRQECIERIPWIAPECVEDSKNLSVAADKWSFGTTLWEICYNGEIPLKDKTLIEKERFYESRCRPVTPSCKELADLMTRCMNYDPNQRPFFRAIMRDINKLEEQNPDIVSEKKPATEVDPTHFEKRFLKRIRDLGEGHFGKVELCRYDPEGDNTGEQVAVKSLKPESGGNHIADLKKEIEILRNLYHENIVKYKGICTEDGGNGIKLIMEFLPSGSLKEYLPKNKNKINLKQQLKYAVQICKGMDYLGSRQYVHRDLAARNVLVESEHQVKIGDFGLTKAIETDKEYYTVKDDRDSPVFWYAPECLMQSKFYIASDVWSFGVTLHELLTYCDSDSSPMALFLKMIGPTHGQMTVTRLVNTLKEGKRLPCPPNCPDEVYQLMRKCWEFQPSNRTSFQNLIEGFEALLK
Experiment: Kinobeads assay, JAK1
Settings: mixed Molt4/Ramos lysate, read-out: Inhibition values (IC50) JAK1
Description: After the incubation time the beads with captured proteins were separated from the lysate. Bound proteins were then eluted and the presence of JAK1, JAK2, JAK3 and TYK2 was detected and quantified using specific antibodies in a dot blot procedure and the Odyssey infrared detection system. Dose response curves for individual kinases were generated and IC50 values calculated. […]
pIC50: −log10 of the molar value.
The entries below come with measured pIC50 values attached.

Examples with their reported pIC50 follow.
| Compound | pIC50 |
| --- | --- |
| CC(O)Cn1cc(Nc2ncc(Cl)c(NC(CO)c3cccc(F)c3)n2)cn1 (centres unmarked) [Compound 38] | 6.00 to 7.00 |
| CNC(=O)Cn1cc(Nc2ncc(F)c(N[C@H](CO)c3ccccc3)n2)cn1 [Compound 111] | 5.00 to 6.00 |
| Cn1cc(Nc2ncc(Cl)c(N[C@H](CO)c3cc(F)cc(F)c3)n2)cn1 [Compound 142] | 6.00 to 7.00 |
| O=C(c1cc(Nc2ncc(Cl)c(N[C@H](CO)c3ccccc3)n2)c[nH]1)N1CCOCC1 [Compound 13] | 5.00 to 6.00 |

For the record NC(=O)Cn1cc(Nc2ncc(Cl)c(NC(CO)c3ccccc3Cl)n2)cn1 (centres unmarked) [Compound 118] , what value of pIC50 is listed for JAK1 (Homo sapiens, UniProt P23458)? 6.00 to 7.00

----------
Biological target: JAK2 (Homo sapiens, UniProt O60674)
Construct: endogenous in cells
Sequence (O60674 whole entry): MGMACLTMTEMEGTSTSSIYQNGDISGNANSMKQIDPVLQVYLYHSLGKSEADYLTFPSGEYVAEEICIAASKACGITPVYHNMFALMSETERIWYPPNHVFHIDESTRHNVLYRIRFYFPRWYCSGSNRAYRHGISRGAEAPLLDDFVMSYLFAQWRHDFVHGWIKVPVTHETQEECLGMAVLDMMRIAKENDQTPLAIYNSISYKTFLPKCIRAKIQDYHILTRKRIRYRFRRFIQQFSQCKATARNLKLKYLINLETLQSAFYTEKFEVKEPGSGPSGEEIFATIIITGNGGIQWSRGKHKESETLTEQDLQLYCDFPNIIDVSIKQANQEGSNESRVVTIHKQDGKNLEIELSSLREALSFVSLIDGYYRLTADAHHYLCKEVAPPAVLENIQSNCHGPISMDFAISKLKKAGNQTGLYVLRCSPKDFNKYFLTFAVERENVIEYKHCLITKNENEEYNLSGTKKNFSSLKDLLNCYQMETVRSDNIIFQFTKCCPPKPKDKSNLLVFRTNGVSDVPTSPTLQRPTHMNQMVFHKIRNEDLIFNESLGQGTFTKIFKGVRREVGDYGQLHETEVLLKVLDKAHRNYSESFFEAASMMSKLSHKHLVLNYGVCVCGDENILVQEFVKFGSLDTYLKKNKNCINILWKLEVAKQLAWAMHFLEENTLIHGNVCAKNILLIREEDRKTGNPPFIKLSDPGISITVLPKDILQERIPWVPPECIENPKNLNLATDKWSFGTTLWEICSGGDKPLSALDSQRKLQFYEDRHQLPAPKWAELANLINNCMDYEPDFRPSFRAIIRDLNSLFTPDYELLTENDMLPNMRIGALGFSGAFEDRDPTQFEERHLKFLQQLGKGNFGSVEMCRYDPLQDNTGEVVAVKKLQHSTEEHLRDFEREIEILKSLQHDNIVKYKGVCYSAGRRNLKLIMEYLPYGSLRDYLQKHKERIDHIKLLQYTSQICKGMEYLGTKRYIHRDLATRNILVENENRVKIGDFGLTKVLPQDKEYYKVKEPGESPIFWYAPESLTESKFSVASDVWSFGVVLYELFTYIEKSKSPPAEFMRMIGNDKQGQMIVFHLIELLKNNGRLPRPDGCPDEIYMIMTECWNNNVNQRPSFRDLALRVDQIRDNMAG
Test: Kinobeads assay, JAK2
Conditions: mixed Molt4/Ramos lysate, read-out: Inhibition values (IC50) JAK2
pIC50: −log10 of the molar value.
Measured Endpoint: pIC50

Solved entries:
| Compound | pIC50 |
| --- | --- |
| COC(=O)C(Nc1nc(Nc2cnn(C)c2)ncc1Cl)c1ccccc1 (centres unmarked) [Compound 16] | ≤ 5.00 |
| OCCn1cc(Nc2ncc(F)c(N[C@H](CO)c3cc(F)ccc3F)n2)cn1 [Compound 147] | 6.00 to 7.00 |
| O=C([C@@H](Nc1nc(Nc2cnn(CCO)c2)ncc1Cl)c1ccccc1)N1CCCC1 [Compound 35] | 5.00 to 6.00 |
| CCn1cc(Nc2ncc(Cl)c(N[C@H](CO)c3ccccc3OC)n2)cn1 [Compound 95] | 6.00 to 7.00 |
| Cn1cc(Nc2ncc(Cl)c(N[C@H](CO)c3cccnc3)n2)cn1 [Compound 91] | 5.00 to 6.00 |
| OCCn1cc(Nc2ncc(Cl)c(N[C@H](CO)c3ccccc3F)n2)cn1 [Compound 77] | 5.00 to 6.00 |

# query: pIC50 of entry Cn1cc(Nc2ncc(Cl)c(N[C@H](C(=O)N3CCCC3)c3ccccc3)n2)cn1 [Compound 34] 5.00 to 6.00

I am curious: what pIC50 value has been reported for CN(C)CCNC(=O)Cn1cc(Nc2ncc(Cl)c(N[C@H](CO)c3ccccc3)n2)cn1 [Compound 89] ? 5.00 to 6.00
